Value source: patent US20130245238A1

Known pIC50 of a selection of binders
biological target: HLA allele molecule DRB*1501 (human); experiment: HLA class II competition binding assay: inhibition of the europium-labeled control peptide, time-resolved fluorescence
pIC50: −log10 of the molar value.

Answered examples (2):
PTSLLISWDAPAVTVRYYRITYG (Synthetic peptide; also called BC loop region cluster) [BC loop peptide (SEQ ID NO: 58)] = > 6.00
PHFPTRYYRITYGETGGNS (Synthetic peptide from an engineered ^10Fn3 domain; also called modified scaffold region segment C-terminal to the BC loop) [scaffold region peptide of SEQ ID NO: 54] = 4.30

Ask: Data request, read-out pIC50, for MGEVVAATPTSLLIS (Synthetic peptide; also called wildtype scaffold region segment N-terminal to the BC loop) [scaffold region peptide of SEQ ID NO: 53]
Reply: > 7.00
